test: Quantitative highthroughput screen to assess conditional lethalithy of P12 Ichikawa cells grown in RPMI1640 with untreated serum (RPMI+s) (AID 1963881); conditions: ATP luminescence, 48 h; viability; series mostly up to 45.8 µM; note: nearly all actives have a fitted effect of over 35% in size
Records with an inconclusive call do not appear. The source made the active and inactive calls. Calls come from the whole dose curve; as a rule, active = well fitted cell-killing curve with a large enough effect; inconclusive = small, poorly fitted or top-dose-only effect; inactive = flat fitted curve, though single readings scatter.
Labels: active, inactive

N#CC1(c2ccc(NC(=O)c3cccnc3NCc3ccncc3)cc2)CCCC1
inactive
CC(C)(S)[C@@H](N)C(=O)O
inactive
COC1CCC(C(=O)c2ccc3nc4c(cc3c2)CCCO4)CC1 (stereo not given)
inactive
CN[C@@H]1C[C@H]2O[C@@](C)([C@H]1OC)n1c3ccccc3c3c4c(c5c6ccccc6n2c5c31)C(=O)N[C@H]4O
active
COc1cccc(OC)c1-c1cc(C(=O)NC2(C(=O)O)C3CC4CC(C3)CC2C4)nn1-c1ccnc2cc(Cl)ccc12 (stereo not given)
inactive
COc1cc(-c2nn(C3CCC(N4CCN(C(C)=O)CC4)CC3)c3ncnc(N)c23)ccc1NC(=O)c1cc2ccccc2n1C (stereo not given)
inactive
COc1cc2c(Nc3ccc(Br)cc3F)ncnc2cc1OCC1CCN(C)CC1
inactive
CN(C)c1ccc(-c2nc3ncc(Cl)c(N4CCN(CC(=O)Nc5nccs5)CC4)c3[nH]2)cc1
inactive
COc1ccc(C2CC(c3ccccc3)=NN2c2ccc(S(N)(=O)=O)cc2)cc1 (stereo not given)
active
N[C@@H]1CONC1=O
inactive
